system: TK-10 renal; assay: NCI-60 one-dose screen, 48 h; conditions: 10 µM unless noted
About 83,000 compounds went through this panel and 20% of them were active in at least one assay; those are over-represented in the sample as a whole. Active and inactive are the calls of the source. How the source made its calls: active means growth percent below 10; inactive means the rest.
Answer with one of the outcomes active, inactive

The examples below pair each entry with its known result.
>>> category_label("O=S(=O)(O)c1cc(O)c2c(N=Nc3ccc(Nc4ccccc4)c4c(S(=O)(=O)O)cccc34)cc(S(=O)(=O)O)cc2c1")
"inactive"
>>> category_label("O=C1c2ccccc2-c2c1c1c(NCCCO)nc3ccccc3c1n2Cc1ccccc1")
"active"
>>> category_label("ClCC1(Cn2cnc3c(Cl)nc(Cl)nc32)COC1")
"inactive"

Ask: Look up the recorded call for `COc1ccccc1Nc1cc(O)c2c(=O)cc(-c3ccccc3)oc2c1` in this test.
Result: inactive

Ask: Look up the recorded call for `CCOc1cc(CNc2ccc(N3CCOCC3)c(C(=O)O)c2)ccc1OC` in this test.
Result: inactive

###

System: T-47D breast
Assay: NCI-60 one-dose screen, 48 h
Conditions: 10 µM unless noted
Protocol: Growth inhibition of the T-47D human tumor cell line is measured as a screen for anti-cancer activity. Cells are grown in 96 well plates and exposed to the test compound for 48 hours. Compounds are tested at a single concentration, which is 10^-5 M for most compounds. The reported endpoint is percent growth (GI% or GIPRCNT), where numbers from 0 - 100% represent growth inhibition, and numbers from -100% - 0 represent cell death. For example, a value of 40 represents 60% growth inhibition. […]
The panel holds about 83,000 compounds, 20% with a hit somewhere; the sample as a whole holds those more often. The source made the active and inactive calls. Rule for the calls: active = growth percent below 10; inactive = the rest.
Answer with one of the outcomes active, inactive

>>> category_label("CC(=O)[C@@H]1CC[C@]2(C(=O)n3ccnc3)CC[C@]3(C)[C@H](CC[C@@H]4[C@@]5(C)Cc6c([nH]c7ccccc67)C(C)(C)[C@@H]5CC[C@]43C)[C@@H]12")
"inactive"
>>> category_label("COc1cc2nc(-c3ccc(C(F)(F)F)cc3)cc(OCCN3CCCC3)c2cc1OC")
"inactive"
>>> category_label("Cn1c(=O)c2[nH]c(CCCc3nc4c([nH]3)c(=O)n(C)c(=O)n4C)nc2n(C)c1=O")
"inactive"
>>> category_label("Cn1c(COC(=O)NCCc2ccccn2)nc2c(N3CCOCC3)nc(Cl)nc21")
"active"
>>> category_label("COc1ccc(CNC(=O)COc2ccc(/C=N/Nc3nc4ccccc4s3)cc2)cc1")
"inactive"

Ask: Look up the recorded call for `CCN(CC)CCCCCCNc1cc(OC)cc2cccnc12` in this test.
Result: inactive

###

tested on: OVCAR-4 ovarian; assay: NCI-60 one-dose screen, 48 h; conditions: 10 µM unless noted
The panel holds about 83,000 compounds, 20% with a hit somewhere; the sample as a whole holds those more often. Calls of active or inactive are those of the source. Rule for the calls: active = growth percent below 10; inactive = the rest.
Answer with one of the outcomes active, inactive

The examples below pair each entry with its known result.
>>> category_label("COc1cccc(C(Cc2ccccc2)Nc2ccccc2)c1OC (stereo not drawn)")
"inactive"
>>> category_label("CC(=O)O[C@]1(C(C)=O)CC[C@H]2[C@@H]3C=C(Cl)C4=CC(=O)CC[C@]4(C)[C@H]3CC[C@@]21C")
"inactive"
>>> category_label("NC(=O)CN1CCN(c2ccccc2Cl)CC1")
"inactive"
>>> category_label("CCCCCCNC(=O)Oc1ccc(/C(=C(/CC)Cc2ccccc2)c2ccc(OCCN(CC)CC)cc2)cc1")
"inactive"
>>> category_label("C=C(C)[C@@H]1CC[C@]2(C(=O)N3CCN(C)CC3)CC[C@]3(C)[C@H](CC[C@@H]4[C@@]5(C)CCC(=O)C(C)(C)[C@@H]5CC[C@]43C)[C@@H]12")
"inactive"
>>> category_label("O=S(=O)(NCCCNc1nccc(-c2c(-c3ccc(F)c(O)c3)nc3sccn23)n1)c1ccc(F)cc1")
"active"
>>> category_label("CCCCCCCCCCCCCCCC(=O)OC[C@@]1(O)C[C@@]23CC[C@@H]4C(C)(C)[C@H](O)CC[C@@]4(C)[C@@H]2CC[C@H]1C3")
"inactive"

Turning now to a further compound:
Ask: Look up the recorded call for O=C(Nc1ccc(Nc2ncccn2)cc1)NC1C=c2ccccc2=CC1 (stereo not drawn) in this test.
Result: inactive
